# studySystem: SmPDE4A_CD (Schistosoma mansoni, UniProt A0ACM8RGL1)
# testName: biochemical
# assaySetup: read-out: SmPDE4A_CD pKi (converted)
readoutType: Ki (nM)

Form field Ki, entry COc1ccc(C(=O)Nc2c(Cl)cncc2Cl)cc1OC [NPD-0446] : 3980

Form field Ki, entry COc1ccc(C2=NN(C3CCN(C(=O)CN4C(=O)CCC4=O)CC3)C(=O)C3CC=CCC23)cc1OC (stereo not shown) [NPD-0007] : 501

Form field Ki, entry O=C(Nc1ccccc1Cl)c1ccc(OC(F)F)c(OCC2CC2)c1 [NPD-3080] : 2000

Form field Ki, entry O=C(Nc1c(Cl)cncc1Cl)c1ccc(F)c(OCC2CC2)c1 [NPD-3093] : 2510

A. O=C(Nc1ccncc1Cl)c1ccc(OC(F)F)c(OCC2CC2)c1 [NPD-1204]
B. O=C(Nc1c(Cl)cncc1Cl)c1ccc(Cl)c(OCC2CC2)c1 [NPD-3096]
C. COc1ccc(C(=O)Nc2c(Cl)cncc2Cl)cc1OCC1CC1 [NPD-3094]
Query block: Ranking field: Ki; order: falling. Use the labels to give the requested order.
Result block: B, C, A

---

# studySystem: SmPDE4A_CD (Schistosoma mansoni)
# testName: biochemical
readoutType: pIC50
# pIC50 is unitless: minus log10 of the molar concentration; print number only

Form field pIC50, entry `COc1ccc(C2=NN(C3CCCCCC3)C(=O)[C@H]3CC=CC[C@@H]23)cc1OCCCCOc1ccc(-c2nnn[nH]2)cc1` : 5.80

New cases:
Form field pIC50, entry `O=C(Nc1c(Cl)cncc1Cl)c1ccc(OC(F)F)c(OCC2CC2)c1` : 6.20

Form field pIC50, entry `COc1ccc(C(=O)Nc2c(Cl)cncc2Cl)cc1OC1CCCC1` : 5.50

---

# testName: Cytotoxicity on MRC-5 cells
# Assay type: cell-based
# assaySetup: human, MRC-5SV40 lung fibroblasts, read-out: MRC-5 pIC50 (converted)
readoutType: IC50 (µM)
Express your answer in µM, writing the number without its unit.

Form field IC50, entry `COc1ccc(C2=NN(C3CCCCCC3)C(=O)[C@H]3CC=CC[C@@H]23)cc1OCCCCOc1ccc(-c2nnn[nH]2)cc1` : 7.94

---

# studySystem: SmPDE4A_CD (Schistosoma mansoni, UniProt A0ACM8RGL1)
# testName: biochemical
# assaySetup: 10 µM compound; read-out: SmPDE4A_CD Inhibition at 10 µM (%)
readoutType: inhibition at 10 µM (%)

I. COc1ccc(C(=O)Nc2c(Cl)cncc2Cl)cc1Cl
II. O=C(Nc1ccncc1)c1ccc(OC(F)F)c(OCC2CC2)c1
III. O=C(Nc1cccc(Cl)c1)c1ccc(OC(F)F)c(OCC2CC2)c1
Query block: Please produce an ascending ranking of these compounds based on inhibition at 10 µM. Use the labels to give the requested order.
Result block: III, I, II

Taken from paper PMC10095301.
